# Assay name: in vitro
# Experimental conditions: human, hela cells, % viability
Measured property: viability at 28.5 h, 10 µM (%)
Expressed in %, but write only the number.

Example entries begin here.
Molecule: Cc1ccc(S(=O)(=O)Nc2cc(Sc3nc(C)cc(C)n3)c(O)c3ccccc23)cc1 [CBK263313]
Measure unit: %
Result: 79

Molecule: CCn1cc(-c2cncn2CCCn2nc(C)cc2C)cn1 [CBK281770]
Measure unit: %
Result: 97.1

Molecule: CCN(Cc1ccccc1)Cc1ccco1 [CBK261884]
Measure unit: %
Result: 111

Molecule: CCCC(C)C(=O)Nc1ccncc1 (centres unmarked) [CBK057984]
Measure unit: %
Result: 87.1

Kindly note the recorded viability at 28.5 h, 10 µM for CC(c1ccncc1)N1Cc2cccc(C(=O)O)c2C1=O (centres unmarked) [CBK291137] , which is 97.4

###

# Assay name: in vitro
# Experimental conditions: human, hela cells, % viability
The molecules listed here are annotated with their viability at 28.5 h, 10 µM.
Provide the measurement as a number trailed by its unit.

Example entries begin here.
Molecule: COc1ccc(S(=O)(=O)N2CCN(Cc3cc(OC)c(OC)c(OC)c3)CC2)cc1 [CBK263330]
viability at 28.5 h, 10 µM: 89.3%

Molecule: O=[N+]([O-])c1cc([N+](=O)[O-])c(Nc2ccncc2)c([N+](=O)[O-])c1Nc1ccncc1 [CBK278276]
viability at 28.5 h, 10 µM: 96.1%

Molecule: CCCCC1CCC(C(=O)Oc2ccccc2OCCO)CC1 (stereo not drawn) [CBK081498]
viability at 28.5 h, 10 µM: 90.6%

Molecule: O=C(COc1ccc(Cl)cc1Br)N1CCCCCC1 [CBK058661]
viability at 28.5 h, 10 µM: 82.8%

Molecule: O=S(=O)(Nc1nc2c(s1)CCCC2)c1ccc(Br)cc1 [CBK097787]
viability at 28.5 h, 10 µM: 89.7%

Kindly note the recorded viability at 28.5 h, 10 µM for NC(=O)c1cccc(-c2cnc(N)c(NCc3ccco3)n2)c1 [CBK063660] , which is 116%

Kindly note the recorded viability at 28.5 h, 10 µM for O=C(CSCc1c(Cl)cccc1Cl)NN1C(=O)c2ccccc2C1=O [CBK267800] , which is 101%

Kindly note the recorded viability at 28.5 h, 10 µM for CN(C)c1cc(=O)c2cc3c(cc2o1)CCC3 [CBK010017] , which is 67.2%

Kindly note the recorded viability at 28.5 h, 10 µM for O=[N+]([O-])c1ccc(N2CCN(C/C=C/c3ccccc3[N+](=O)[O-])CC2)cc1 [CBK261895] , which is 95%

Kindly note the recorded viability at 28.5 h, 10 µM for O=C(O)COc1noc2nc3c(cc12)CCCCC3 [CBK269429] , which is 97.7%

Kindly note the recorded viability at 28.5 h, 10 µM for CC1=C[C@@H](CN2CCC(O)CC2)[C@H](C(C)C)C[C@H]1Cc1nnc(-c2ccccc2)o1 [CBK289220] , which is 97.2%

Kindly note the recorded viability at 28.5 h, 10 µM for CCn1cc(C(C)NC(=S)Nc2ccc(OC)cc2OC)c(C)n1 (stereo not drawn) [CBK266950] , which is 90%

Kindly note the recorded viability at 28.5 h, 10 µM for O=C(c1ccc(N2CCN(C3CC(=O)N(Cc4cccs4)C3=O)CC2)cc1)c1cccnc1 (stereo not drawn) [CBK269040] , which is 98.5%

Kindly note the recorded viability at 28.5 h, 10 µM for Cc1n[nH]c(C)c1CC(=O)NC(Cc1cccs1)c1ccccn1 (stereo not drawn) [CBK285208] , which is 111%

Kindly note the recorded viability at 28.5 h, 10 µM for N#Cc1ccc(C(=O)NCC2(N3CCOCC3)CCSC2)cc1 (stereo not drawn) [CBK305602] , which is 95.3%

Kindly note the recorded viability at 28.5 h, 10 µM for Nc1cc(-c2ccco2)nn(Cc2c(F)cccc2Cl)c1=O [CBK282881] , which is 86.1%

Kindly note the recorded viability at 28.5 h, 10 µM for O=C(O)CNS(=O)(=O)c1ccc(F)cc1 [CBK034464] , which is 122%

Kindly note the recorded viability at 28.5 h, 10 µM for CC(=O)c1cccc(-n2c(CCC(=O)O)ccc2-c2ccc(Br)cc2)c1 [CBK131888] , which is 98.2%

Kindly note the recorded viability at 28.5 h, 10 µM for Cc1cc(C)c2c(n1)oc1c(NC(C)C)ncnc12 [CBK287917] , which is 108%

Kindly note the recorded viability at 28.5 h, 10 µM for CC1(C)CC(N(Cc2ccccc2)C(=O)Cc2ccco2)CCO1 (stereo not drawn) [CBK019561] , which is 95.9%

Kindly note the recorded viability at 28.5 h, 10 µM for Cc1c(CN(C)CC(=O)Nc2ccc(Br)cc2Cl)cnn1C [CBK304214] , which is 86%

Kindly note the recorded viability at 28.5 h, 10 µM for O=C(O)C(Cc1ccccc1)C(C(=O)O)c1ccccc1 (stereo not drawn) [CBK286578] , which is 94.3%

Kindly note the recorded viability at 28.5 h, 10 µM for Fc1ccc(CNc2c(-c3ccco3)nc3cnccn23)cc1 [CBK283694] , which is 92%

Kindly note the recorded viability at 28.5 h, 10 µM for N#Cc1ccc(CN2CCN(S(=O)(=O)c3ccc(-n4cnc(Cl)c4Cl)cc3)CC2)cc1 [CBK062972] , which is 104%

Kindly note the recorded viability at 28.5 h, 10 µM for O=C(c1cnc(-c2ccncc2)s1)N(CC(F)(F)F)C1CCC1 [CBK304119] , which is 84.1%
